assay: Growth inhibition of human HepG cells; type: functional
Listed below: GI50 values for each entry.

Completed entries (count: 3):
> print(dat)
                                   compound  reported.endpoint  data.value
1  COc1cc2c3c(c4cc(OC)c(OC)cc4c2cc1OC)CN1CCC[C@H]1C3 [(S)-TYLOPHORINE]               GI50       11 nM
2         COc1ccc2cc(C)c3cc(OC)c(OC)cc3c2c1               GI50  > 10000 nM
3  COc1cc2c3c(c4cc(OC)c(OC)cc4c2cc1OC)CN1CCC[C@@H]1C3 [TYLOPHORINE]               GI50       33 nM

Q: Supply GI50 value. Item: COc1ccc2c(CNCCCCCO)cc3cc4c(cc3c2c1)OCO4
Ans: 2300 nM

Q: Note GI50 for the compound shown: COc1ccc2c(CN3CCC[C@H]3C(=O)O)cc3cc4c(cc3c2c1)OCO4
Ans: 8600 nM

Q: Determine its reported GI50: COc1ccc2cc(C[C@H]3CCCCN3)c3cc(OC)c(OC)cc3c2c1
Ans: 1720 nM

Q: Give GI50 for COc1ccc2c(CN3CCC[C@H]3CO)cc3cc4c(cc3c2c1)OCO4
Ans: 5400 nM

Q: Give the value of GI50 reported for the following: COc1ccc2c(CN3CCCC[C@H]3C(=O)O)cc3cc4c(cc3c2c1)OCO4
Ans: 3000 nM

Q: Given COc1ccc2c3c(c4cc(OC)c(OC)cc4c2c1)CC1CCCCN1C3 (racemic) , respond with its GI50.
Ans: 1.5 nM

Q: Fill in reported GI50 for this entry: COc1ccc2c(CN3CCCC[C@H]3CO)cc3cc4c(cc3c2c1)OCO4
Ans: 3100 nM

Q: Report GI50 for COc1ccc2c3c(c4cc(OC)c(OC)cc4c2c1)C[C@H]1CCCN1C3 [(-)-ANTOFINE]
Ans: 4.9 nM

Q: Look up GI50 of COc1ccc2c3c(c4cc5c(cc4c2c1)OCO5)C[C@H]1CCCN1C3 and report it.
Ans: 371 nM

* * *

tested on: PANC-1; assay: Growth inhibition of human PANC1 cells; format: functional
Param label: returns true (1) when GI50 < 900 nM, returns false (0) otherwise, including exact equality.

> print(dat)
                                   molecule  category.label
1  COc1ccc2c3c(c4cc(OC)c(OC)cc4c2c1)CC1CCCCN1C3 (racemic)        true (1)
2  COc1ccc2c3c(c4cc5c(cc4c2c1)OCO5)C[C@H]1CCCN1C3        true (1)
3         COc1ccc2cc(C)c3cc(OC)c(OC)cc3c2c1       false (0)
4   COc1ccc2c(CNCCCCCO)cc3cc4c(cc3c2c1)OCO4       false (0)
5  COc1ccc2c(CN3CCCC[C@H]3C(=O)O)cc3cc4c(cc3c2c1)OCO4       false (0)
6  COc1ccc2c(CN3CCC[C@H]3C(=O)O)cc3cc4c(cc3c2c1)OCO4       false (0)

Q: Check if GI50 falls below 900 nM for COc1ccc2c(CN3CCC[C@H]3CO)cc3cc4c(cc3c2c1)OCO4 .
Ans: false (0)

Q: For this molecule, is GI50 lower than 900 nM? COc1ccc2c3c(c4cc(OC)c(OC)cc4c2c1)C[C@H]1CCCN1C3 [(-)-ANTOFINE]
Ans: true (1)

Q: # strict comparison: is reported GI50 < 900 nM? input = COc1cc2c3c(c4cc(OC)c(OC)cc4c2cc1OC)CN1CCC[C@@H]1C3 [TYLOPHORINE]
Ans: true (1)

Q: Threshold test, GI50 < 900 nM: COc1ccc2c(CN3CCCC[C@H]3CO)cc3cc4c(cc3c2c1)OCO4
Ans: false (0)

Q: In plain terms, does COc1cc2c3c(c4cc(OC)c(OC)cc4c2cc1OC)CN1CCC[C@H]1C3 [(S)-TYLOPHORINE] come in under 900 nM for GI50?
Ans: true (1)
